Reference for the values: patent US12582681B2

# Test system: Lactobacillus reuteri CECT 9859
# assay comment: Broth microdilution MIC (MRS and LSM medium)
# Format: cell-based
# test conditions: Limosilactobacillus reuteri, CECT9859, 24 h, LSM medium; anaerobic, 37° C., 24 h; read-out: MIC
Label Met when MIC is strictly below 8 µg/mL; otherwise label Not met.

Enquiry: Hello, I'm reviewing records and need to know if MIC of CN[C@H](CC(C)C)C(=O)N[C@H]1C(=O)N[C@@H](CC(N)=O)C(=O)N[C@H]2C(=O)N[C@H]3C(=O)N[C@H](C(=O)N[C@H](C(=O)O)c4cc(O)cc(O)c4-c4cc3ccc4O)[C@H](O)c3ccc(c(Cl)c3)Oc3cc2cc(c3O[C@@H]2O[C@H](CO)[C@@H](O)[C@H](O)[C@H]2O[C@H]2C[C@](C)(N)[C@H](O)[C@H](C)O2)Oc2ccc(cc2Cl)[C@H]1O is below 8 µg/mL. Could you check?
Return: Not met

Enquiry: Hello, I'm reviewing records and need to know if MIC of [H]/N=C(/N)N[C@H]1[C@H](O)[C@@H](O)[C@H](O[C@@H]2O[C@@H](C)[C@](O)(C=O)[C@H]2O[C@@H]2O[C@@H](CO)[C@H](O)[C@@H](O)[C@@H]2NC)[C@@H](N/C(N)=N\[H])[C@@H]1O is below 8 µg/mL. Could you check?
Return: Not met

Enquiry: Hello, I'm reviewing records and need to know if MIC of NC[C@H]1O[C@H](O[C@H]2[C@H](O)[C@@H](O[C@H]3O[C@H](CO)[C@@H](O)[C@H](N)[C@H]3O)[C@H](N)C[C@@H]2N)[C@H](O)[C@@H](O)[C@@H]1O is below 8 µg/mL. Could you check?
Return: Not met

Enquiry: Hello, I'm reviewing records and need to know if MIC of CC1(C)S[C@@H]2[C@H](NC(=O)[C@H](N)c3ccccc3)C(=O)N2[C@H]1C(=O)O is below 8 µg/mL. Could you check?
Return: Met

Enquiry: Hello, I'm reviewing records and need to know if MIC of O=C(N[C@H](CO)[C@H](O)c1ccc([N+](=O)[O-])cc1)C(Cl)Cl is below 8 µg/mL. Could you check?
Return: Met

Enquiry: Hello, I'm reviewing records and need to know if MIC of CCC[C@@H]1C[C@@H](C(=O)N[C@@H]([C@H]2O[C@H](SC)[C@H](O)[C@@H](O)[C@H]2O)[C@H](C)Cl)N(C)C1 is below 8 µg/mL. Could you check?
Return: Met

* * *

# System: Lactobacillus reuteri CECT 9859
# assay comment: Broth microdilution MIC (MRS and LSM medium); on Category (LSM): key: S, susceptible; R, resistant
# Format: cell-based
# test conditions: LSM medium; against EFSA (2018) breakpoints
observed property: Category (LSM)

Per the record, CN[C@H](CC(C)C)C(=O)N[C@H]1C(=O)N[C@@H](CC(N)=O)C(=O)N[C@H]2C(=O)N[C@H]3C(=O)N[C@H](C(=O)N[C@H](C(=O)O)c4cc(O)cc(O)c4-c4cc3ccc4O)[C@H](O)c3ccc(c(Cl)c3)Oc3cc2cc(c3O[C@@H]2O[C@H](CO)[C@@H](O)[C@H](O)[C@H]2O[C@H]2C[C@](C)(N)[C@H](O)[C@H](C)O2)Oc2ccc(cc2Cl)[C@H]1O has Category (LSM) of R

Per the record, CN(C)[C@@H]1C(O)=C(C(N)=O)C(=O)[C@@]2(O)C(O)=C3C(=O)c4c(O)cccc4[C@@](C)(O)[C@H]3C[C@@H]12 has Category (LSM) of S

Per the record, CC1(C)S[C@@H]2[C@H](NC(=O)[C@H](N)c3ccccc3)C(=O)N2[C@H]1C(=O)O has Category (LSM) of S
